Origin of the recorded values: ChEMBL document CHEMBL1136345

Biological target: Histone deacetylase
Test: Inhibitory activity against Histone deacetylase (HDAC) in K 562 erythroleukemia cells (Radioactivity based HDAC assay)
Set-up: species or system Homo sapiens
Metric name: IC50

{"columns": ["Smiles input", "IC50"],
 "data": [
  ["O=C(CCCCCCc1nnc(-c2ccc(-c3ccccc3)cc2)o1)c1ncco1", "0.25 µM"],
  ["O=C(CCCCCCC(=O)c1ncco1)NNC(=O)c1ccc(-c2ccccc2)cc1", "1.83 µM"],
  ["O=C(CCCCCCOc1ccc(-c2ccccc2)cc1)c1nc2ccccc2o1", "> 50 µM"],
  ["Cn1ccnc1C(=O)CCCCCCOc1ccc(-c2ccccc2)cc1", "> 50 µM"],
  ["O=C(CCCCCCOc1ccc(-c2ccccc2)cc1)c1ccccn1", "> 50 µM"]
]}

// query Record "O=C(CCCCCCOc1ccc(-c2ccccc2)cc1)c1ncc[nH]1" : what is its IC50 with Histone deacetylase?
// result > 50 µM
